protocol-notes: yeast display, Sf9 membrane polyspecificity reagent, FACS + sequencing; frameworks hold sequencing errors
observable: polyreactivity (PSR sort gate)

residue_string=QVQLVESGGGLVQAGGSLRLSCAASGIIFLKYAMGWYRQAPGKERELVAGISVRGGRTYYADSVKGRFTISRDNAKNTVYLQMNSLKPEDTAVYYCAKERSRYYPYDYWGQGTQVTVSS recorded_value="high polyreactivity"
residue_string=QVQLVESGGGLVQAGGSLRISSAASGRIFRVNGIGWYIQAPGKERELVAAIRRSGGSTYYADSVKGRFTISRDNAKNSVYLLMNILKPDDTAVYFCAAPVRQSSYTRYDSWGQGTQVTVSS recorded_value="high polyreactivity"
residue_string=QVQHVESGGGLVQAGGSLRLSCAASGYIFPDYAMGWYRLAPGKEREMVAAITSSGGITYYADSVKGRFTISRDNAKNTVYLQMNCLKPEDSAVYYCAKGYPWRYSIMDYWGQGTQVTVSS recorded_value="low polyreactivity"
residue_string=QVQLVESGGGLVQAGGSLRISCAASGFIFHVYAMGWYRQAPGKERELVAAISSGGSTYYADSVKGRFTISRDNAKNTVYLQMNSLKPEDTAVYYCNVARSRYRYRYDYWGQGTQVTVSS recorded_value="high polyreactivity"
residue_string=QVQLVESGGGLVQAGGSLRLSCAASGSISYYNAMGWYRQAPGKERELVATITDSGGSTYYADSVKGRFTISRDNAKNTVYLQMNSLKPEDTAVYYCNADYWAVNYDYWGQGSQVTVSS recorded_value="low polyreactivity"
residue_string=QVQLVESGGGLVQAGGSLRLSCAASGITFVNYAMGWYRQAPGKERELVAAISNGGSTYYADSVKGRFTISRDNAKNTVYLQMNSLKPEDTAVYYCAAKPVQKFRPRYGYWGQGTQVTVSS recorded_value="high polyreactivity"
residue_string=QVQLVVSGGGLVQQGGSLRLSCAASGTFRYYTMGWYRQAPGKERELVAAISRSGGRSYYADSVTGRCTISRDNAKNTVDLPMNSLKPEDTAVYYCAARYKLYYPDYYYWGQGTQVTVSS recorded_value="high polyreactivity"
residue_string=QVQLVESGGGLVQAGGSLRLSCAASGFTFFSNAMGWYREAPGQERELVASITNDGSTYADSVKGRFTISRDNAKNTVYLQMNSLKPEDTAVYYCAARFPQWRYSRRTCERFDYWGQGTQVTVSS recorded_value="low polyreactivity"
residue_string=QVQLVESGGGLVQAGGSLRLSCAASGFNFAIYAMGWYRQAPGKERELVAAISSSGGSTYYADSVKGRFTISRDNAKNTVYLQMNSLKPEDTAVYYCNADWSLYWLDYWGQGTQVTVSS recorded_value="high polyreactivity"
residue_string=QVQLVESGGGLVQAGGSLRLSCAASGSTLYVYAMGWYRQAPGKERELVAAITRGSRTSYADSVKGRFTISRDNAKNTVYLQMNSLKPEDTAVYYCNADTILWFLPPQKRDYWGQGTQVTVSS recorded_value="low polyreactivity"
residue_string=QVQLVDSRGGLVQAGGSLRLSCSASGSIFPANVMGWYRQAPGKERELVASINSGDDTNYADSVKGRFTISRDNAKNTVYLQMNSLKPEDTAVYYCATGDWYPYGDYIYDYWGQGTQVTVSS recorded_value="low polyreactivity"

###

protocol-notes: yeast display, Sf9 membrane polyspecificity reagent, FACS + sequencing; frameworks hold sequencing errors
observable: polyreactivity (PSR sort gate)

residue_string=QVQLVVSGGGLVQAGGSLRLICAASGFSFFFYALGWYSQAPGKDRELHATINWSGASTYYADSVMGRFTISRDNATNTVYLQMNSLKPEDTAVYYCAKDGHYPLVYLAFDYWGQGTQVTGSS recorded_value="low polyreactivity"
residue_string=QVQLVESGGGLVQAGGSLRLSCAASGSIFYPYAMGWYRQAPGKERELVAAIDYSDGSTYYADSVKGRFTISRDNAKNTVYLQMNSLKPEDTAVYYCAADGTYVWGSEEGNYWGQGTQVTVSS recorded_value="low polyreactivity"

###

protocol-notes: yeast display, Sf9 membrane polyspecificity reagent, FACS + sequencing; frameworks hold sequencing errors
observable: polyreactivity (PSR sort gate)

residue_string=QVQLVESGGGLVQAGGSLRLSCAASGSIFWINAMGGYRQAPGKEREVVADIDVSGGSTYYADSVKGRFTISRDNAKNTVYLQMNSLKPEDTAVYYCAADAWVRTYHYGYWGQGTQVTVSS recorded_value="low polyreactivity"
residue_string=QVQLVESGGGLVQAGGSLRLSCAASGSTFYTYAMGWYRQATGKERELVAAISWSGGSTYYADSVKGRFTISRDNAKNTVYLQMNSLKPEDPAVYYCAADRPYAGRYWKGYHSALYDYWGQGSQVTVSS recorded_value="low polyreactivity"
residue_string=QVQLVESGGGLVQAGGSLRLSCAASGSIFRGYAMGWYRQAPGKERDLVAAITSGGSTNYADSVKGRFTISRDNAKNSVYLQMNSLKPEDTAVYYCAKDLALVAPLSDYWGQGTQVTVSS recorded_value="low polyreactivity"
residue_string=QVQLVESGGGLVQAGGSLSLSCAASGSIFLRNAMGWYRQAPGKETEYVASITWNGASTSYADSVMGRFTISRDNAKNTVYLQMNSLKPEDTAVYYCAARDSQYGGPGMDYWGQGTQVTVSS recorded_value="low polyreactivity"

###

protocol-notes: yeast display, Sf9 membrane polyspecificity reagent, FACS + sequencing; frameworks hold sequencing errors
observable: polyreactivity (PSR sort gate)

residue_string=QVQLVESGGGLVQAGGSLRLSCAASGITFYYYVMGWYRQAPGKERELVASISRGGSTYYADSVKGRFTISRDNAKNTVYLQMNSLKPEDTAVYYCAAAGNRPWSITPFRKRYGYNYWGQGSQVTVSS observable="polyreactivity (PSR sort gate)" recorded_value="high polyreactivity"
residue_string=QVQLVESGGGLVQAGGSLRLSCAASGSIFAIYVMGWYRQAPGKERELVAAISYRSGSTYYADSVKGRFTISRDNAKNTVYLQMNSLKPEDTAVYYCAATSRYYTFGYWGQGTQVTVSS observable="polyreactivity (PSR sort gate)" recorded_value="low polyreactivity"
residue_string=QVQLVESGGGLVQAGGSLRLSCAASGITFTLYAMGWYRQSPGKERELVAAISRGGGTTYYADSVKGRFTISRDNAKNTVYLQMNSLKPEDTAVYYCATDWHSSGYWGQGTQVTVSS observable="polyreactivity (PSR sort gate)" recorded_value="low polyreactivity"
residue_string=QVQLVESGGGLVQAGGSLRLSCAASGSIFHANAMGWYRQAPGKERELVAVISQGGGSTYYADSVKGRFTISRDNAKNTVYLQMNSLKPEDTAVYYCAAYYYYSAYGDDYWGQGTQVTVSS observable="polyreactivity (PSR sort gate)" recorded_value="high polyreactivity"
residue_string=QVQLVESGGGLVQAGGSLRLSCPASGRTFWYYAMGWYRQAPGKVRELVAAITWSGSDTYYADSVKGRFTISRDNAKNTVYVQMNSLKPEDTAVYFCAAEYYYESSGYDYWGQGTQVTVSS observable="polyreactivity (PSR sort gate)" recorded_value="high polyreactivity"

###

protocol-notes: yeast display, Sf9 membrane polyspecificity reagent, FACS + sequencing; frameworks hold sequencing errors
observable: polyreactivity (PSR sort gate)

residue_string=QVQLVESGGGLVQSVGSLRLSCAASGFTFRWYAMGWYRQAPGKERELVAAITSRGGTTYYADSVKGRFTISRDNAKNTVYLQMNSLNPEDTAVYYCAARRAGRRGYYYWGQGTQVTVSS recorded_value="high polyreactivity"
residue_string=QVQLVESGGGLVQAGGSLRLSCAASGFIFPYYDMGWYRQAPGTERELVAAISWSGDSTYYADSVKGRFTISRDNAKNTVYLQMNSLKPEDTAVYYCNVRARYQRYYYWGQGTQVTVSS recorded_value="high polyreactivity"
residue_string=QVQLVESGRGLVQAGGSLRLSCAASGFTFYYYANGWYRQAPGKERELVAAISIGGSTYYADSVKGRFTISRDNAKNTVYLQMNCLKPEDTAVYYCNVVFTYWPPGTARYDYWGQGTQVTVSS recorded_value="high polyreactivity"

###

protocol-notes: yeast display, Sf9 membrane polyspecificity reagent, FACS + sequencing; frameworks hold sequencing errors
observable: polyreactivity (PSR sort gate)

residue_string=QVQLVESGGRLVQAGGSLRLSCAASGFIIVFYDMGWYRQAPGKERELVAGITRNDGSTYYADSVKGRFKISRDNAKNTVYLQMNSLKPEDTAVYYCAADRVRRNDKLAYDYWGQGTQVTVSS recorded_value="low polyreactivity"
residue_string=QVQLVESGGGLVQAGGSLRLSCAASGLIFYEHAMGWYRQAPGKERELVAAINYDGDSTYYADSVKGRFTISRDNAKITVYLQMNSLKPEDTAVYYCAADGGWVLFWMDYCGQGTQVTVSS recorded_value="low polyreactivity"
residue_string=QVQLVESGGGLVQAGGSLRLSCAASGRIFVGNAMGWYRQAPGKEWALVAANSGSGDSTYYADSVKGRFTISRDNAKNTVYLQMISLKPEDTAVYYCNVDYDFVIYYYWYYPGYDYWGQGTQVTVSS recorded_value="low polyreactivity"
